Tested on: Mycobacterium tuberculosis
protocolNotes: Binding affinity to wild type Mycobacterium tuberculosis Pks13-TE N1640 expressed in Escherichia coli BL21(DE3) pLysS assessed as change in melting temperature at 1:5 compound to protein ratio by nanoDSF thermal stability analysis
observable: ΔTm (°C)
Report the value in °C with no unit label.

Check out these entries, answers already filled in.
substanceSmiles	experimentalSystem	observable	valueReported
O=c1oc2cc(O)ccc2c2oc3ccc(O)c(CN4CCCCC4)c3c12	Mycobacterium tuberculosis	ΔTm	7
O=c1oc2cc(O)ccc2c2oc3ccc4c(c3c12)CN(CC1CC1)CO4	Mycobacterium tuberculosis	ΔTm	5.4
O=c1oc2cc(O)ccc2c2oc3ccc(O)c(CN4CCC(F)CC4)c3c12	Mycobacterium tuberculosis	ΔTm	8.8

Turning now to a further record.
Give the measured ΔTm of O=c1oc2cc(O)ccc2c2oc3ccc4c(c3c12)CN(C1CCCC1)CO4 .
8.1
